Data provenance is paper PMC8391922.

Give pIC50 for every item shown.
experimental_system: rat TRPV2 (Rattus norvegicus, UniProt Q9WUD2)
Construct: expressed in transfected cells; host or cells: HEK-293
Sequence (Q9WUD2 1-761): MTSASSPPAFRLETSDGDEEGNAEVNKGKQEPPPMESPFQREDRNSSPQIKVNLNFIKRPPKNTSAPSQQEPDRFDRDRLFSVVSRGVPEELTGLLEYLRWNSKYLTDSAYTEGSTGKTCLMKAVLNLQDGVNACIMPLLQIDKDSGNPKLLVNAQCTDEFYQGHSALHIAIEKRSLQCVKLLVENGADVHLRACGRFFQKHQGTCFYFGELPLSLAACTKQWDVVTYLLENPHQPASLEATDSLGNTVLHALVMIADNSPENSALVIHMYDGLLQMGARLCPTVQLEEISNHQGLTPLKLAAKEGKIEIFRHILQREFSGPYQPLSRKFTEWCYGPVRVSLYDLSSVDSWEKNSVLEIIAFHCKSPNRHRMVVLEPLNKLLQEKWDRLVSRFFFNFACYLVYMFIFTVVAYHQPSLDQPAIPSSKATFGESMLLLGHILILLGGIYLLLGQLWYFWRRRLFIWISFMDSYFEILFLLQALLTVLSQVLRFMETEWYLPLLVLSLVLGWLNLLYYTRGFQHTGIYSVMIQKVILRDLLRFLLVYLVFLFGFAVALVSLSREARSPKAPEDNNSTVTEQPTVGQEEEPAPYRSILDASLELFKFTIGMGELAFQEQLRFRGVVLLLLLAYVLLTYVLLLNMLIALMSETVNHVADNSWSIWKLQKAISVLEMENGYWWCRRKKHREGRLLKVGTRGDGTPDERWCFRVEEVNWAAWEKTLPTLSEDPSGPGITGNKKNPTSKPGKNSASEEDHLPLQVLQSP
assay_name: TRPV2-mediated elevation of intracellular Ca2+ (Fluo-4) in transfected HEK-293 cells
Type: cell-based
assay_setup: antagonist/desensitizing; compound added 5 min before agonist CBD 2 μM; read-out: IC50 TRPV2
Remember, pIC50 is on a log scale: it is -log10 of the molar concentration.

# get_value(readout='pIC50', item= CCCCCCCc1cc(O)c2c(c1)OC(C)(CCC=C(C)C)C=C2 (stereo not drawn) [8c, Depentyl-5-n-heptylcannabichromene] )
5.05

# get_value(readout='pIC50', item= CCCCC(C)(C)c1cc(O)c2c(c1)OC(C)(CCC=C(C)C)C=C2 (stereo not drawn) [8d] )
4.88

# get_value(readout='pIC50', item= C=C(C)[C@@H]1CCC(C)=C[C@H]1c1c(O)cc(C(C)(C)CCCCCC)cc1O [1b, Depentyl-α,α-dimethylheptyl-cannabidiol] )
4.77

---

Give pIC50 for every item shown.
experimental_system: human TRPV1 (Homo sapiens, UniProt Q8NER1)
Construct: expressed in transfected cells; host or cells: HEK-293
Sequence (Q8NER1 whole entry): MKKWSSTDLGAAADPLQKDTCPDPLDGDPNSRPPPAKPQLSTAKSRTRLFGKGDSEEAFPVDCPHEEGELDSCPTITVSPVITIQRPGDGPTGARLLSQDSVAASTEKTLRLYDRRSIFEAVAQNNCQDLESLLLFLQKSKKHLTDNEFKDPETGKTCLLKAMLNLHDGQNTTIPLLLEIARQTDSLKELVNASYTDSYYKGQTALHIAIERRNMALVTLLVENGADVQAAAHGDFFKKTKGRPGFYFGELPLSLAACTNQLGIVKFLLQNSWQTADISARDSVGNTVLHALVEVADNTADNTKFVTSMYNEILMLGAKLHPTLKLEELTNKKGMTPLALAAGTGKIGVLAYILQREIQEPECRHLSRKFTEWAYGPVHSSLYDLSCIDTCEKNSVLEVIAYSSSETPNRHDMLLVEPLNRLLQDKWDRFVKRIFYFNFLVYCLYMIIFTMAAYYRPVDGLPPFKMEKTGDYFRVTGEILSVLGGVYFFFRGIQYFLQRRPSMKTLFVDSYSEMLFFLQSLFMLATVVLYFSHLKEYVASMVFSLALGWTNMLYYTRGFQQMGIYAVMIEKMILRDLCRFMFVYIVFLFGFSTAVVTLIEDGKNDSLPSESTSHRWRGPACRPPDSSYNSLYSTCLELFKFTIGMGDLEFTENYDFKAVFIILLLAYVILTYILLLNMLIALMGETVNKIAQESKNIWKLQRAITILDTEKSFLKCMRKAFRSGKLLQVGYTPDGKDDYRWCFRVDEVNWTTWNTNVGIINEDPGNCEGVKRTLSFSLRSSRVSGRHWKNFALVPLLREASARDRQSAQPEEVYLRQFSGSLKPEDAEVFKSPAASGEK
assay_name: TRPV1-mediated elevation of intracellular Ca2+ (Fluo-4) in transfected HEK-293 cells
Format: cell-based
assay_setup: antagonist/desensitizing; compound added 5 min before agonist capsaicin 0.1 μM; read-out: IC50 TRPV1
pIC50: −log10 of the molar value.

# get_value(readout='pIC50', item= CCCCCCCc1cc(O)c2c(c1)OC(C)(CCC=C(C)C)C=C2 (stereo not drawn) [8c, Depentyl-5-n-heptylcannabichromene] )
< 4.00

# get_value(readout='pIC50', item= C=C(C)[C@@H]1CCC(C)=C[C@H]1c1c(O)cc(C(C)(C)CCCCCC)cc1O [1b, Depentyl-α,α-dimethylheptyl-cannabidiol] )
< 4.00

# get_value(readout='pIC50', item= CCCCC(C)(C)c1cc(O)c2c(c1)OC(C)(CCC=C(C)C)C=C2 (stereo not drawn) [8d] )
< 4.00
